- Test system: HeLa
- experimentNotes: Primary qHTS to identify gynecologic anti-cancer compounds using libraries of approved drugs and bioactive compounds (AID 1345084); note: nearly all actives have a fitted effect of over 55% in size
- appliedConditions: Gynecologic cancer cell panel viability, ATPlite luminescence, 48 h; series mostly up to 57.5 µM
Results filed as inconclusive are left out. The source made the active and inactive calls. Calls come from the whole dose curve; as a rule, active = well fitted cell-killing curve with a large enough effect; inconclusive = small, poorly fitted or top-dose-only effect, or effect the other way; inactive = flat fitted curve, though single readings scatter.
Respond with a class label; see active, inactive

Past entries and their recorded results:
>  <compound>
CN(CCCN1c2ccccc2CCc2ccccc21)CC(=O)c1ccc(Cl)cc1

>  <class>
inactive

$$$$
>  <compound>
CN1CCN(C2=Nc3ccccc3Sc3ccc(Cl)cc32)CC1

>  <class>
inactive

$$$$
>  <compound>
CCCCC(CC)COC(=O)c1ccc(N(C)C)cc1 (configuration not stated)

>  <class>
inactive

$$$$
>  <compound>
Cc1ncc(CO)c(C=O)c1O

>  <class>
inactive

$$$$
>  <compound>
CCCCCCCCNC(C)C(O)c1ccc(SC(C)C)cc1 (configuration not stated)

>  <class>
inactive

$$$$

Problem: Check the results log: what was the call for `CCCCCCCCCCCCCC[N+](C)(C)Cc1ccccc1` ?
Result: active

Problem: Which outcome was assigned to `C[C@H]1[C@H]2CC[C@H]3[C@@H]4CC=C5C[C@@H](N(C)C)CC[C@]5(C)[C@H]4CC[C@]23CN1C` in this test?
Result: inactive
